All values here come from patent US20250059220A1.

- experimental.system: human PTPN2 (1-387) (Homo sapiens (Human), UniProt P17706)
- Sequence (P17706 other isoform, or with tags, fused parts or gaps): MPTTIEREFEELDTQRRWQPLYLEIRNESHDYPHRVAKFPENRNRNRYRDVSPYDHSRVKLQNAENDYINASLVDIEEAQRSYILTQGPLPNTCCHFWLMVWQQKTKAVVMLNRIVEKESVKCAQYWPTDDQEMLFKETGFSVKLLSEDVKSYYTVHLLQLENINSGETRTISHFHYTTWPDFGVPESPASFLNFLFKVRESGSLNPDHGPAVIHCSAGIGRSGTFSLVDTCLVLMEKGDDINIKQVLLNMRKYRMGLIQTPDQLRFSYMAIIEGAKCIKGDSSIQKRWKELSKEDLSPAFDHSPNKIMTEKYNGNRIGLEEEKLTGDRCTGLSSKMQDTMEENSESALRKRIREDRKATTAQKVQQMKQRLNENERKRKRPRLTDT
- procedure.text: Human PTPN2 Biochemical Assay
- condition: DiFMUP substrate
Assign a class from recorded IC50; defined classes: group A: < 300 nM; group B: ≥ 300 nM and < 4000 nM; group C: ≥ 4000 nM

[Q] Please classify: NC(=O)c1cc(OCC23CC(S(N)(=O)=O)(C2)C3)c2sc(C(F)(F)P(=O)(O)O)c(Br)c2c1 [Compound 403]
[A] group A

[Q] Another compound to look at: COCCCCNC(=O)c1ccc2sc(C(F)(F)P(=O)(O)O)c(Br)c2c1 [Compound 45]
[A] group C

[Q] Also need O=C(Nc1ccccc1)Nc1ccc2sc(C(F)(F)P(=O)(O)O)c(Br)c2c1 [Compound 219] , thanks.
[A] group B

[Q] Next compound: CCc1nc(CNC(=O)c2ccc3sc(C(F)(F)P(=O)(O)O)c(Br)c3c2)no1 [Compound 195]
[A] group C

[Q] Next compound up: CC(CC1C=Nc2ccc(F)cc21)NC(=O)c1ccc2sc(C(F)(F)P(=O)(O)O)c(Br)c2c1 (stereo not shown) [Compound 151]
[A] group C

[Q] Likewise for NC(=O)c1cc(OCCCC2(O)CC2)c2sc(C(F)(F)P(=O)(O)O)c(Br)c2c1 [Compound 331] ?
[A] group A

[Q] Here is the next compound: NC(=O)c1cc(OCCC2CCCS2(=O)=O)c2sc(C(F)(F)P(=O)(O)O)c(Br)c2c1 (single isomer, unassigned) [Compound 371]
[A] group A

[Q] What about O=C(NCc1c[nH]nn1)c1cc(OCCCC(F)(F)F)c2sc(C(F)(F)P(=O)(O)O)c(Br)c2c1 [Compound 209] ?
[A] group A

[Q] // query: O=C(NC1CCCN(c2ccccc2)C1)c1ccc2sc(C(F)(F)P(=O)(O)O)c(Br)c2c1 (stereo not shown) [Compound 76]
[A] group B

[Q] And for CS(=O)(=O)CCCOc1cc(-c2nc[nH]n2)cc2c(C#N)c(C(F)(F)P(=O)(O)O)sc12 [Compound 428] ?
[A] group A

[Q] Could you do the same for O=C(NCc1cncc(C(F)(F)F)c1)c1ccc2sc(C(F)(F)P(=O)(O)O)c(Br)c2c1 [Compound 30] , please?
[A] group B

[Q] Another compound to look at: O=C(Nc1cccc(CO)n1)c1ccc2sc(C(F)(F)P(=O)(O)O)c(Br)c2c1 [Compound 104]
[A] group C

[Q] And what about the compound O=C(NCc1cncnc1)c1ccc2sc(C(F)(F)P(=O)(O)O)c(Br)c2c1 [Compound 42] ?
[A] group B

[Q] Thanks! And O=C(NC(c1ccccc1)c1cccnc1)c1ccc2sc(C(F)(F)P(=O)(O)O)c(Br)c2c1 (stereo not shown) [Compound 65] ?
[A] group C

[Q] And CN(C)C(=O)c1cc(OCCCC(F)(F)F)c2sc(C(F)(F)P(=O)(O)O)c(Br)c2c1 [Compound 204] ?
[A] group B

----------
Quick note: these are pIC50 numbers for system: human PTPN1 (1-435) (Homo sapiens (Human))
Sequence (P18031 whole entry): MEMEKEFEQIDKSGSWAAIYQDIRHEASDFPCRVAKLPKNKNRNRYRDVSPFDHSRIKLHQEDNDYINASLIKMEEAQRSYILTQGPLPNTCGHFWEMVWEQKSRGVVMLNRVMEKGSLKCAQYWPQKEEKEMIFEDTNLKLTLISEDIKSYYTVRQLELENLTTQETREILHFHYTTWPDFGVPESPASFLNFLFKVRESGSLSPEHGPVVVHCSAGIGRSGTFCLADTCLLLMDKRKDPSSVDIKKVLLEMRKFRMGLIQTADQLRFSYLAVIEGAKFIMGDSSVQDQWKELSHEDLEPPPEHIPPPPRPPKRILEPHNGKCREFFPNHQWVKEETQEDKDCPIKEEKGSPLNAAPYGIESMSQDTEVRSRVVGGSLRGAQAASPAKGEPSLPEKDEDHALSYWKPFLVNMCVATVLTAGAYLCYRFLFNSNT
In textbook form, pIC50 equals minus log to base ten of the concentration in mol/L.

[Q] What value of pIC50 has been recorded for this entry: CC(NC(=O)c1ccc2sc(C(F)(F)P(=O)(O)O)c(Br)c2c1)c1cccnc1 (stereo not shown)
[A] 5.19

[Q] Next up: NC(=O)c1cc(OCC2CC2(F)F)c2sc(C(F)(F)P(=O)(O)O)c(Br)c2c1 (stereo not shown) [Compound 316]
[A] 7.17

[Q] Note, next up: C[Si](C)(C)CCc1cc(C(N)=O)cc2c(Br)c(C(F)(F)P(=O)(O)O)sc12
[A] 7.32

[Q] Next up: C[C@H](NC(=O)c1ccc2sc(C(F)(F)P(=O)(O)O)c(Br)c2c1)c1ccccn1
[A] 5.47
